# targetOfAssay: UniProtKB P00915
# protocolText: stopped-flow CO2 hydrase assay, hCA I
# conditionDetails: mean from three assays, stopped-flow technique, errors ± 5–10%
assayReadout: log10 Ki (log10 of the value in nM)
Could you please treat all values as log10 of Ki in nM?

Fill in the blank: the reported log10 Ki of Cc1ccc(-c2c(S(=O)(=O)c3ccccc3)nnn2-c2cccc(S(N)(=O)=O)c2)cc1 [Compound 10b] is ____.
2.75

Can you share its log10 Ki? I mean this molecule: COc1ccc(-c2c(S(=O)(=O)c3ccccc3)nnn2-c2ccc(S(N)(=O)=O)cc2)cc1Br
3.97

Requested field: log10 Ki. Item: COc1ccc(-c2c(S(=O)(=O)c3ccccc3)nnn2-c2ccc(S(N)(=O)=O)cc2)cc1
3.89

====

Entries with reported pKi on hCA IV (Homo sapiens, UniProt P22748)
Sequence (P22748 19-312): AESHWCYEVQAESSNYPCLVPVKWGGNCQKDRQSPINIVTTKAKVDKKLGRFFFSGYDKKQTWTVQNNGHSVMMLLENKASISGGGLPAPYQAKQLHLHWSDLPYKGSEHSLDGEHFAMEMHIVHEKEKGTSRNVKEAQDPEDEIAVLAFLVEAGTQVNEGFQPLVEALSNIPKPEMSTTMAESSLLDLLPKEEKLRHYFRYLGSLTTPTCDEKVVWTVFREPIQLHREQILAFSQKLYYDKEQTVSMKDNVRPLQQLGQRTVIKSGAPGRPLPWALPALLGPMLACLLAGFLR
By convention, pKi is the negative base-10 log of a molar concentration.

Would you please look over these solved cases?
compound | assayReadout | endpointValue
NS(=O)(=O)c1ccc(-n2nnc(S(=O)(=O)c3ccccc3)c2-c2cccc(Br)c2)cc1 [Compound 9f] | pKi | 7.02
NS(=O)(=O)c1cccc(-n2nnc(S(=O)(=O)c3ccccc3)c2-c2ccccc2)c1 [Compound 10a] | pKi | 7.10
NS(=O)(=O)c1cccc(-n2nnc(S(=O)(=O)c3ccccc3)c2-c2cccc([N+](=O)[O-])c2)c1 [Compound 10j] | pKi | 5.77

Now take the following compound into account.
Notebook: pull reported pKi for hCA IV (Homo sapiens, UniProt P22748), entry NS(=O)(=O)c1cccc(-n2nnc(S(=O)(=O)c3ccccc3)c2-c2ccc(F)cc2)c1 [Compound 10c]
7.10

====

# targetOfAssay: hCA IX (Homo sapiens, UniProt Q16790)
assayReadout: pKi
// returns pKi (minus log10 of molar concentration), number only

Solved cases below.
molecule | pKi
NS(=O)(=O)c1cccc(-n2nnc(S(=O)(=O)c3ccccc3)c2-c2ccc([N+](=O)[O-])cc2)c1 [Compound 10i] | 7.57
NS(=O)(=O)c1ccc(-n2nnc(S(=O)(=O)c3ccccc3)c2-c2ccc(F)cc2)cc1 [Compound 9c] | 7.18
NS(=O)(=O)c1cccc(-n2nnc(S(=O)(=O)c3ccccc3)c2-c2cccc(Br)c2)c1 [Compound 10f] | 7.54
NS(=O)(=O)c1ccc(-n2nnc(S(=O)(=O)c3ccccc3)c2-c2ccc(-c3ccccc3)cc2)cc1 [Compound 9k] | 7.61

So what pKi did NS(=O)(=O)c1cccc(-n2nnc(S(=O)(=O)c3ccccc3)c2-c2ccc(F)cc2)c1 [Compound 10c] get with hCA IX (Homo sapiens, UniProt Q16790)?
7.64

====

# targetOfAssay: hCA IX (Homo sapiens, UniProt Q16790)
# protocolText: stopped-flow CO2 hydrase assay, hCA IX
# conditionDetails: ratio KI hCA II / KI hCA IX
The following compounds are listed with their measured Selectivity index II/IX values.

compound | Selectivity index II/IX
NS(=O)(=O)c1ccc(-n2nnc(S(=O)(=O)c3ccccc3)c2-c2ccc(F)cc2)cc1 | 0.10
NS(=O)(=O)c1cccc(-n2nnc(S(=O)(=O)c3ccccc3)c2-c2ccccc2)c1 [Compound 10a] | 6.20
NS(=O)(=O)c1ccc(-n2nnc(S(=O)(=O)c3ccccc3)c2-c2ccc(Br)cc2)cc1 | 7.32
Cc1ccc(-c2c(S(=O)(=O)c3ccccc3)nnn2-c2cccc(S(N)(=O)=O)c2)cc1 [Compound 10b] | 1.03
Cc1ccc(-c2c(S(=O)(=O)c3ccccc3)nnn2-c2ccc(S(N)(=O)=O)cc2)cc1 | 0.25

Can you look up the measured Selectivity index II/IX of COc1ccc(-c2c(S(=O)(=O)c3ccccc3)nnn2-c2cccc(S(N)(=O)=O)c2)cc1Br [Compound 10h] for me?
28.45

Query (compound): COc1ccc(-c2c(S(=O)(=O)c3ccccc3)nnn2-c2ccc(S(N)(=O)=O)cc2)cc1 ; field requested: Selectivity index II/IX
0.25

So what does the record say about Selectivity index II/IX for NS(=O)(=O)c1ccc(-n2nnc(S(=O)(=O)c3ccccc3)c2-c2cccc(Br)c2)cc1 ?
0.34

Request the reported Selectivity index II/IX associated with NS(=O)(=O)c1cccc(-n2nnc(S(=O)(=O)c3ccccc3)c2-c2ccc(Cl)cc2)c1 [Compound 10d]
3.56

====

Catalogue of melting point values

Sample records with melting point:
compound | melting point
NS(=O)(=O)c1ccc(-n2nnc(S(=O)(=O)c3ccccc3)c2-c2cccc(Br)c2)cc1 [Compound 9f] | 282 to 284 °C
NS(=O)(=O)c1cccc(-n2nnc(S(=O)(=O)c3ccccc3)c2-c2ccc(-c3ccccc3)cc2)c1 [Compound 10k] | 74 to 76 °C
NS(=O)(=O)c1ccc(-n2nnc(S(=O)(=O)c3ccccc3)c2-c2ccc(Cl)cc2)cc1 [Compound 9d] | 213 to 215 °C

Return reported melting point; argument: COc1ccc(-c2c(S(=O)(=O)c3ccccc3)nnn2-c2ccc(S(N)(=O)=O)cc2)cc1Br [Compound 9h]
210 to 212 °C

// lookup melting point for NS(=O)(=O)c1cccc(-n2nnc(S(=O)(=O)c3ccccc3)c2-c2ccc(Br)cc2)c1 [Compound 10e]
96 to 98 °C

State the recorded melting point for this entry: NS(=O)(=O)c1ccc(-n2nnc(S(=O)(=O)c3ccccc3)c2-c2ccc(-c3ccccc3)cc2)cc1 [Compound 9k]
214 to 216 °C

====

# targetOfAssay: hCA I (Homo sapiens, UniProt P00915)
# Sequence (P00915 whole entry): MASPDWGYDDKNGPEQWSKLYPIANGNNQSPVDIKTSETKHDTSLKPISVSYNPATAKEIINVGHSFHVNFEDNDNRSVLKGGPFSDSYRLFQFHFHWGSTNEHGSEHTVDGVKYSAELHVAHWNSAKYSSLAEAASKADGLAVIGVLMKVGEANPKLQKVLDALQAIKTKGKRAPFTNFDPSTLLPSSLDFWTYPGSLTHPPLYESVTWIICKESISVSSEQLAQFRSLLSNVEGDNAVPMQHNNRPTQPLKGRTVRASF
# protocolText: stopped-flow CO2 hydrase assay, hCA I
# conditionDetails: mean from three assays, stopped-flow technique, errors ± 5–10%
assayReadout: Ki (µM)
// note: answer is a bare numeric in µM

Completed entries (count: 4):
compound | targetOfAssay | assayReadout | endpointValue
NS(=O)(=O)c1ccc(-n2nnc(S(=O)(=O)c3ccccc3)c2-c2ccccc2)cc1 | hCA I (Homo sapiens, UniProt P00915) | Ki | 0.0979
NS(=O)(=O)c1cccc(-n2nnc(S(=O)(=O)c3ccccc3)c2-c2ccc([N+](=O)[O-])cc2)c1 [Compound 10i] | hCA I (Homo sapiens, UniProt P00915) | Ki | 0.868
NS(=O)(=O)c1ccc(-n2nnc(S(=O)(=O)c3ccccc3)c2-c2cccc(Br)c2)cc1 | hCA I (Homo sapiens, UniProt P00915) | Ki | 0.433
COc1ccc(-c2c(S(=O)(=O)c3ccccc3)nnn2-c2cccc(S(N)(=O)=O)c2)cc1Br [Compound 10h] | hCA I (Homo sapiens, UniProt P00915) | Ki | 8.03

Below: the item to evaluate.
Returns the measured Ki for the input compound. Input: Cc1ccc(-c2c(S(=O)(=O)c3ccccc3)nnn2-c2ccc(S(N)(=O)=O)cc2)cc1
0.767

====

Below, each entry is listed with its recorded melting point.

molecule | endpointValue
COc1ccc(-c2c(S(=O)(=O)c3ccccc3)nnn2-c2cccc(S(N)(=O)=O)c2)cc1Br [Compound 10h] | 231 to 233 °C
NS(=O)(=O)c1cccc(-n2nnc(S(=O)(=O)c3ccccc3)c2-c2ccccc2)c1 [Compound 10a] | 172 to 174 °C
NS(=O)(=O)c1ccc(-n2nnc(S(=O)(=O)c3ccccc3)c2-c2ccc(F)cc2)cc1 | 207 to 209 °C
COc1ccc(-c2c(S(=O)(=O)c3ccccc3)nnn2-c2ccc(S(N)(=O)=O)cc2)cc1 | 235 to 237 °C

Next item in the queue.
Can you share its melting point? I mean this molecule: Cc1ccc(-c2c(S(=O)(=O)c3ccccc3)nnn2-c2ccc(S(N)(=O)=O)cc2)cc1
205 to 207 °C

Value source: paper PMC9154810
